The reported measurements were obtained from ChEMBL document CHEMBL1128252.

Below, each of the compounds is paired with its reported IC50 value.
tested on: Human immunodeficiency virus 1; test: Effective concentration required to achieve 50% protection of MT-4 cells against the cytopathic effect of HIV-1.; assay type: functional, organism-based, MT4; conditions: Human immunodeficiency virus 1, MT4

Some compounds with recorded IC50:
C=C(C)CN1Cc2cccc3nc(O)n(c23)CC1CCC (configuration not stated): > 10 µM
CC(C)=CCN1CCn2c(=S)[nH]c3ccc(Cl)c(c32)C1C (configuration not stated): 0.012 µM
CCCC1Cn2c(O)nc3cccc(c32)CN1 (configuration not stated): > 250 µM
O=C1CCC2c3cc(Cl)cc4nc(S)n(c34)CCN12 (configuration not stated): > 250 µM
C=C(C)CN1Cc2cccc3[nH]c(=O)n(c23)C(C(C)C)C1 (configuration not stated): 12.6 µM
CC(C)C1CNCc2cccc3nc(O)n1c23 (configuration not stated): > 250 µM
CCCC1CNCc2cccc3nc(O)n1c23 (configuration not stated): > 250 µM
CC(C)[C@H]1Cn2c(O)nc3cccc(c32)CN1: > 250 µM
C=C(C)CN1Cc2cccc3[nH]c(=O)n(c23)C(CCC)C1 (configuration not stated): 48.1 µM
C[C@@H]1Cn2c(O)nc3cc(Cl)cc(c32)CN1: > 250 µM

Asked: Please supply the value of reported IC50 for the item CC(C)=CCN1Cc2cc(Cl)cc3[nH]c(=O)n(c23)C[C@H]1C
Given back: 0.18 µM

Asked: Identify IC50 associated with the compound CC(C)=CCN1CCn2c(=S)[nH]c3ccc(Cl)c(c32)C1
Given back: 0.046 µM
